system: MEG-01 (Chronic Myelogenous Leukemia); assay: combination Emax (second highest fraction inhibited in the dose matrix, 72 h); higher = more inhibition; extreme values may be limits of the assay
measure: combination Emax
Give only the figure.

For orientation, consider the following solved cases.
molecule: CN(CCO)CC[C@H](CSc1ccccc1)Nc1ccc(S(=O)(=O)NC(=O)c2ccc(N3CCC([C@@H](O)c4ccccc4-c4ccc(Cl)cc4)CC3)cc2)cc1S(=O)(=O)C(F)(F)F [AZD4320] + C=CCn1c(=O)c2cnc(Nc3ccc(N4CCN(C)CC4)cc3)nc2n1-c1cccc(C(C)(C)O)n1 [AZD1775] (first compound max 1 µM, partner max 1 µM)
endpoint.result: 0.994
//
molecule: C[C@@H](c1ccc2nccn2c1)n1nnc2ncc(-c3cnn(C)c3)nc21 [Savolitinib] + CC1(C)CCC(CN2CCN(c3ccc(C(=O)NS(=O)(=O)c4ccc(NCC5CCOCC5)c([N+](=O)[O-])c4)c(Oc4cnc5[nH]ccc5c4)c3)CC2)=C(c2ccc(Cl)cc2)C1 [Venetoclax] (first compound max 1 µM, 7x7, partner max 1 µM)
endpoint.result: 0.0651

Problem: Form field: combination Emax recorded for CN(C)CCCOc1ccc(-c2ccc3ncc4c(c3c2)n(C2CCOCC2)c(=O)n4C)cn1 [AZD0156] + C=CCn1c(=O)c2cnc(Nc3ccc(N4CCN(C)CC4)cc3)nc2n1-c1cccc(C(C)(C)O)n1 [AZD1775] (first compound max 1 µM, partner max 1 µM) with MEG-01 (Chronic Myelogenous Leukemia) (enter value)
Result: 0.883

Problem: Follow-up entry: O=C(c1cc(Cc2n[nH]c(=O)c3ccccc23)ccc1F)N1CCN(C(=O)C2CC2)CC1 [Olaparib] + COc1nnc2ccc(N3CCC(c4ccc(OCCN5CCN(C)C(=O)[C@H]5C)cc4)CC3)nn12 [AZD5153] (first compound max 10 µM, 7x7, partner max 1 µM)
Result: 0.76
